- assay: Cmax in rat at 10 mg/kg
- Assay type: ADME, organism-based
- Parameters: dose 10 mg/kg
- test.settings: in vivo

structure.notation: CCn1cc2c3c(cc(C(=O)N[C@@H](Cc4ccccc4)[C@H](O)CNCCC(F)(F)F)cc31)N(C)S(=O)(=O)CC2
Cmax [nM]: 88

----------
- assay: Half life in rat at 1 mg/kg/hr, iv
- Assay type: ADME, organism-based
- Set-up: route intravenous
- test.settings: in vivo
readout.type: half-life (min)

structure.notation: CCn1cc2c3c(cc(C(=O)N[C@@H](Cc4ccccc4)[C@H](O)CNCCC(F)(F)F)cc31)N(C)S(=O)(=O)CC2
meas.value: 198

----------
- assay: Lipophilicity, log D at pH 7.4
- test.settings: buffer
Note to self: logD under 2 means 1.0, ties and anything higher get 0.0.

structure.notation: CCc1cn2c3c(cc(C(=O)N[C@@H](Cc4ccccc4)[C@H](O)CNCCC(F)(F)F)cc13)N(C)S(=O)(=O)CC2
label: 0.0

structure.notation: CCc1cn2c3c(cc(C(=O)N[C@@H](Cc4ccccc4)[C@H](O)CNC4CCOCC4)cc13)N(C)S(=O)(=O)CC2
label: 1.0

structure.notation: CCNC[C@@H](O)[C@H](Cc1ccccc1)NC(=O)c1cc2c3c(cn(CC)c3c1)CCS(=O)(=O)N2C
label: 1.0

structure.notation: CCn1cc2c3c(cc(C(=O)N[C@@H](Cc4ccccc4)[C@H](O)CNC4CCOCC4)cc31)N(C)S(=O)(=O)CC2
label: 1.0

structure.notation: CCc1cn2c3c(cc(C(=O)N[C@@H](Cc4ccccc4)[C@H](O)CNC4CC4)cc13)N(C)S(=O)(=O)CC2
label: 0.0

structure.notation: CCc1cn2c3c(cc(C(=O)N[C@@H](Cc4ccccc4)[C@H](O)CN[C@H](C)CC)cc13)N(C)S(=O)(=O)CC2
label: 1.0

structure.notation: CCn1cc2c3c(cc(C(=O)N[C@@H](Cc4ccccc4)[C@H](O)CNCCC(F)(F)F)cc31)N(C)S(=O)(=O)CC2
label: 0.0

structure.notation: CCn1cc2c3c(cc(C(=O)N[C@@H](Cc4ccccc4)[C@H](O)CNC4CC4)cc31)N(C)S(=O)(=O)CC2
label: 1.0

----------
Listed here: items and their measured IC50.
- tested.target: Beta-secretase 1 (Homo sapiens, UniProt P56817)
- Sequence (P56817 whole entry): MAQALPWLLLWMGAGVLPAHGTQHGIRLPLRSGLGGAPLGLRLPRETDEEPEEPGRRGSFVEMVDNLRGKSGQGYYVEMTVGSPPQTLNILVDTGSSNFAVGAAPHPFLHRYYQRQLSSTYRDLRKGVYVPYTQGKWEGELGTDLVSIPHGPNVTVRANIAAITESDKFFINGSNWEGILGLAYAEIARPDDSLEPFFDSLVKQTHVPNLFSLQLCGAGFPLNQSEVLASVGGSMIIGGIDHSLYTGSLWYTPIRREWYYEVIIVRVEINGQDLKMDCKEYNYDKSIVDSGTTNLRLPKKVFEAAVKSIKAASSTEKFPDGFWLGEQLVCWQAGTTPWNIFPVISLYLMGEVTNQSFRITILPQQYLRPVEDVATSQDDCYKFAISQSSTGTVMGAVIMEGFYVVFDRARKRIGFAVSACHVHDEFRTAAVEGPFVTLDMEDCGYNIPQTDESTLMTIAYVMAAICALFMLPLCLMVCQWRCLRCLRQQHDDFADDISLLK
- assay: Inhibition of BACE1
readout.type: IC50

structure.notation: CCn1cc2c3c(cc(C(=O)N[C@@H](Cc4ccccc4)[C@H](O)CNCC(F)(F)C(F)(F)F)cc31)N(C)S(=O)(=O)CC2
readout.type: IC50
meas.value: 0.032 µM
--
structure.notation: CCc1cn2c3c(cc(C(=O)N[C@@H](Cc4ccccc4)[C@H](O)CNC4CC4)cc13)N(C)S(=O)(=O)CC2
readout.type: IC50
meas.value: 0.011 µM
--
structure.notation: CCn1cc2c3c(cc(C(=O)N[C@@H](Cc4ccccc4)[C@H](O)CNc4ccccc4)cc31)N(C)S(=O)(=O)CC2
readout.type: IC50
meas.value: 0.005 µM
--
structure.notation: CCc1cn2c3c(cc(C(=O)N[C@@H](Cc4ccccc4)[C@H](O)CNC4CC4)cc13)OS(=O)(=O)CC2
readout.type: IC50
meas.value: 0.25 µM
--
structure.notation: CCc1cn2c3c(cc(C(=O)N[C@@H](Cc4ccccc4)[C@H](O)CNC4CCOCC4)cc13)N(C)S(=O)(=O)CC2
readout.type: IC50
meas.value: 0.009 µM
--
structure.notation: CCc1cn2c3c(cc(C(=O)N[C@@H](Cc4ccccc4)[C@H](O)CN[C@H](C)CC)cc13)N(C)S(=O)(=O)CC2
readout.type: IC50
meas.value: 0.022 µM
--
structure.notation: C#CCNC[C@@H](O)[C@H](Cc1ccccc1)NC(=O)c1cc2c3c(c1)c(CC)cn3CCS(=O)(=O)N2C
readout.type: IC50
meas.value: 0.073 µM
--
structure.notation: CCNC[C@@H](O)[C@H](Cc1ccccc1)NC(=O)c1cc2c3c(cn(CC)c3c1)CCS(=O)(=O)N2C
readout.type: IC50
meas.value: 0.023 µM
--
structure.notation: CCc1cn2c3c(cc(C(=O)N[C@@H](Cc4ccccc4)[C@H](O)CNCCF)cc13)N(C)S(=O)(=O)CC2
readout.type: IC50
meas.value: 0.05 µM
--
structure.notation: CCn1cc2c3c(cc(C(=O)N[C@@H](Cc4ccccc4)[C@H](O)CNCCF)cc31)N(C)S(=O)(=O)CC2
readout.type: IC50
meas.value: 0.04 µM
--
structure.notation: CCc1cn2c3c(cc(C(=O)N[C@@H](Cc4ccccc4)[C@H](O)CNCc4cccc(C(F)(F)F)c4)cc13)OS(=O)(=O)CC2
readout.type: IC50
meas.value: 0.008 µM
--
structure.notation: CC[C@@H](C)NC[C@@H](O)[C@H](Cc1ccccc1)NC(=O)c1cc2c3c(cn(CC)c3c1)CCS(=O)(=O)N2C
readout.type: IC50
meas.value: 0.01 µM
--
structure.notation: CCc1cn2c3c(cc(C(=O)N[C@@H](Cc4ccccc4)[C@H](O)CNCC4CCOCC4)cc13)OS(=O)(=O)CC2
readout.type: IC50
meas.value: 0.086 µM

----------
- tested.target: Beta-secretase 1 (Homo sapiens)
- assay: Inhibition of BACE1 in human SHSY5Y cells expressing wild type APP assessed as inhibition of intracellular amyloid beta-40 secretion
- Assay type: cell-based, SH-SY5Y

structure.notation: CC[C@@H](C)NC[C@@H](O)[C@H](Cc1ccccc1)NC(=O)c1cc2c3c(cn(CC)c3c1)CCS(=O)(=O)N2C
tested.target: Beta-secretase 1 (Homo sapiens)
IC50 / nM: 64
//
structure.notation: CCn1cc2c3c(cc(C(=O)N[C@@H](Cc4ccccc4)C(=O)CNC4CCOCC4)cc31)N(C)S(=O)(=O)CC2
tested.target: Beta-secretase 1 (Homo sapiens)
IC50 / nM: 48
//
structure.notation: CCn1cc2c3c(cc(C(=O)N[C@@H](Cc4ccccc4)[C@H](O)CNCC(F)F)cc31)N(C)S(=O)(=O)CC2
tested.target: Beta-secretase 1 (Homo sapiens)
IC50 / nM: 51
//
structure.notation: CCn1cc2c3c(cc(C(=O)N[C@@H](Cc4ccccc4)[C@H](O)CNCC(F)(F)F)cc31)N(C)S(=O)(=O)CC2
tested.target: Beta-secretase 1 (Homo sapiens)
IC50 / nM: 2110
//
structure.notation: CCNC[C@@H](O)[C@H](Cc1ccccc1)NC(=O)c1cc2c3c(cn(CC)c3c1)CCS(=O)(=O)N2C
tested.target: Beta-secretase 1 (Homo sapiens)
IC50 / nM: 73
//
structure.notation: CCc1cn2c3c(cc(C(=O)N[C@@H](Cc4ccccc4)[C@H](O)CN[C@H](C)CC)cc13)N(C)S(=O)(=O)CC2
tested.target: Beta-secretase 1 (Homo sapiens)
IC50 / nM: 144
//
structure.notation: CCn1cc2c3c(cc(C(=O)N[C@@H](Cc4ccccc4)[C@H](O)CNc4ccccc4)cc31)N(C)S(=O)(=O)CC2
tested.target: Beta-secretase 1 (Homo sapiens)
IC50 / nM: 739
//
structure.notation: CCn1cc2c3c(cc(C(=O)N[C@@H](Cc4ccccc4)[C@H](O)CNCCF)cc31)N(C)S(=O)(=O)CC2
tested.target: Beta-secretase 1 (Homo sapiens)
IC50 / nM: 245
//
structure.notation: CCc1cn2c3c(cc(C(=O)N[C@@H](Cc4ccccc4)[C@H](O)CNCCC(F)(F)F)cc13)N(C)S(=O)(=O)CC2
tested.target: Beta-secretase 1 (Homo sapiens)
IC50 / nM: 8

----------
- tested.target: Cathepsin D (Homo sapiens, UniProt P07339)
- Sequence (P07339 65-162 limits assumed): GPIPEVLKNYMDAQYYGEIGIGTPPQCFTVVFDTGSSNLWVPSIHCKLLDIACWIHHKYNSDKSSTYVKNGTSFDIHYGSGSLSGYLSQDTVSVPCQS
- Sequence (P07339 169-412 limits assumed): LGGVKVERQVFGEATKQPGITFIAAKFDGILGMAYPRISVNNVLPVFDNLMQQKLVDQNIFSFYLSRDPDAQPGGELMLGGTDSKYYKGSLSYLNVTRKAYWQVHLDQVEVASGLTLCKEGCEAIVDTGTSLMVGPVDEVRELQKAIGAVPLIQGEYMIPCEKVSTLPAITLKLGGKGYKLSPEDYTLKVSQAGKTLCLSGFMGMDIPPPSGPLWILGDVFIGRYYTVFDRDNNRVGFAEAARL

structure.notation: C#CCNC[C@@H](O)[C@H](Cc1ccccc1)NC(=O)c1cc2c3c(c1)c(CC)cn3CCS(=O)(=O)N2C
unit.of.measurement: µM
IC50: 75.5

structure.notation: C#CCNC[C@@H](O)[C@H](Cc1ccccc1)NC(=O)c1cc2c3c(c1)c(CC)cn3CCS(=O)(=O)O2
unit.of.measurement: µM
IC50: 15.1

structure.notation: CCn1cc2c3c(cc(C(=O)N[C@@H](Cc4ccccc4)[C@H](O)CNCCC(F)(F)F)cc31)N(C)S(=O)(=O)CC2
unit.of.measurement: µM
IC50: 0.57
